test system: green foxtail; assay: Test C postemergence; type: in vivo, Setaria viridis; conditions: 125 g ai/ha, postemergence, 10 days; 0 to 100 scale, 0 no effect, 100 complete control
Can you tell me Plant response rating, Foxtail, Green for the items I'm about to list?

// solved cases for Plant response rating, Foxtail, Green follow
>  <Compound>
CCc1ncn(-c2ccc(OC)c(C(=S)N3C[C@H](C)Oc4c(C)cccc43)c2)n1

>  <Tested System>
green foxtail

>  <Plant response rating, Foxtail, Green>
90

$$$$
>  <Compound>
CC(C)c1ncn(-c2ccc(SC(F)(F)F)c(C(=O)N3C[C@H](C)Oc4c(Cl)cccc43)c2)n1

>  <Tested System>
green foxtail

>  <Plant response rating, Foxtail, Green>
30

$$$$
>  <Compound>
CCc1ncn(-c2ccc(C)c(C(=O)N3CC(C(F)(F)F)Oc4c(Cl)cccc43)c2)n1 (racemic)

>  <Tested System>
green foxtail

>  <Plant response rating, Foxtail, Green>
80

$$$$

Read the next record carefully.
// query # assay system green foxtail: give Plant response rating, Foxtail, Green of CC(C)c1ncn(-c2cc3c(c(C(=O)N4C[C@H](C)Oc5c(Cl)cccc54)c2)CCC3)n1
// result 70

----------
test system: ryegrass, Italian; assay: Test A preemergence; format: in vivo, Lolium multiflorum; details: 125 g ai/ha, visual injury after 10 days, 0 to 100 scale, 0 is no effect, 100 is complete control
Observation Type: Plant response rating, Ryegrass, Italian
Numbers only.

Use the examples below as a reference point.
>  <Molecule>
CCOc1ccc(-n2cnc(C(C)C)n2)cc1C(=O)N1C[C@H](C)Oc2c(Cl)cccc21 [Compound 106]

>  <Tested System>
ryegrass, Italian

>  <Measured Result>
40

$$$$
>  <Molecule>
Cc1ccc(-n2cnc(C(C)C)n2)cc1C(=O)N1C[C@H](C)Oc2c(C)cccc21 [Compound 99]

>  <Tested System>
ryegrass, Italian

>  <Measured Result>
90

$$$$

// query Answer with the recorded Plant response rating, Ryegrass, Italian for the molecule listed here: Cc1cccc2c1O[C@@H](C)CN2C(=O)c1cccc(-n2cncn2)c1F [Compound 53]
// result 30

----------
test system: Pigweed, Redroot; test: Test A preemergence; type: in vivo, Amaranthus retroflexus; conditions: 1000 g ai/ha, 0 to 100 scale (0 no effect, 100 complete control), 10 days
Observation Type: Plant response rating, Pigweed, Redroot
Give bare numbers.

>  <Compound>
CC1CN(C(=O)c2ccnc(-n3cncn3)c2)c2ccccc2O1 (stereo not drawn) [Compounds 8]

>  <Plant response rating, Pigweed, Redroot>
10

$$$$
>  <Compound>
CC(C)C1CN(C(=O)c2ccnc(-n3cncn3)c2)c2cccc(Cl)c2O1 (stereo not drawn)

>  <Plant response rating, Pigweed, Redroot>
0

$$$$

Now for another entry.
// query Give me measured Plant response rating, Pigweed, Redroot, please, for this compound: CC1CN(C(=O)c2cccc(-n3cncn3)c2)c2ccccc2O1 (stereo not drawn)
// result 0

----------
test system: blackgrass; assay: Test A preemergence; assay type: in vivo, Alopecurus myosuroides; settings: 125 g ai/ha, 0 to 100 scale
Record form. Attribute: Plant response rating, Blackgrass. Fill in for each entry.
Give bare numbers.

Recorded results for 3 compounds are shown here.
>  <Compound Structure String>
CC(C)c1ncn(-c2cc(C(=O)N3C[C@H](C)Oc4c(Cl)cccc43)c3ccccc3c2)n1

>  <Plant response rating, Blackgrass>
40

$$$$
>  <Compound Structure String>
C[C@H]1CN(C(=O)c2cc(I)cc(-n3cncn3)c2)c2cccc(Cl)c2O1

>  <Plant response rating, Blackgrass>
0

$$$$
>  <Compound Structure String>
Cc1nc(C)n(-c2cccc(C(=O)N3C[C@H](C)Oc4c(Cl)cccc43)c2)n1

>  <Plant response rating, Blackgrass>
0

$$$$

From here, focus on the item given below.
// query Please report Plant response rating, Blackgrass for the following compound: Cc1ccc(-n2cnc(CO)n2)cc1C(=O)N1C[C@H](C)Oc2c(Cl)cccc21
// result 80

Hey, just so you know, these numbers are from patent US20260262643A1.
